Reported Bliss excess values follow for various compounds
- System: HCC-15 (Squamous Cell Lung Carcinoma);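 also: after 72 h of two-drug dosing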
- ASSAY METHOD TEXT: Bliss excess, mean over the matrix (fraction); higher = more synergy
MEASURED PARAMETER: Bliss excess

compound="Cc1cc2ncnn2cc1Nc1ncc2c(n1)n(C1CCOCC1)c(=O)n2C [AZD7648] + O=C(c1cc(Cc2n[nH]c(=O)c3ccccc23)ccc1F)N1CCN(C(=O)C2CC2)CC1 [Olaparib] (first compound max 10 µM, 7x7, partner max 10 µM)" tested_system="HCC-15 (Squamous Cell Lung Carcinoma)" measured_parameter="Bliss excess" readout_value=-0.0059
compound="COc1nnc2ccc(N3CCC(c4ccc(OCCN5CCN(C)C(=O)[C@H]5C)cc4)CC3)nn12 [AZD5153] + CN(CC[C@H](CSC1=CC=CC=C1)NC2=C(C=C(C=C2)S(=O)(=O)NC(=O)C3=CC=C(C=C3)N4CCC(CC4)[C@H](C5=CC=CC=C5C6=CC=C(C=C6)Cl)O)S(=O)(=O)C(F)(F)F)CCO [AZD4320] (first compound max 1 µM, 7x7, partner max 1 µM)" tested_system="HCC-15 (Squamous Cell Lung Carcinoma)" measured_parameter="Bliss excess" readout_value=-0.0023
compound="Cc1c2c(nn1C)CSCc1cc(n(C)n1)CSc1cc(c3ccccc3c1)OCCCc1c(C(=O)O)n(C)c3c-2c(Cl)ccc13 [AZD5991] + C[C@@H]1COCCN1C2=NC(=NC(=C2)C3(CC3)[S@](=N)(=O)C)C4=C5C=CNC5=NC=C4 [AZD6738] (first compound max 1 µM, 7x7, partner max 10 µM)" tested_system="HCC-15 (Squamous Cell Lung Carcinoma)" measured_parameter="Bliss excess" readout_value=0.0549
compound="CN(CCO)CC[C@H](CSc1ccccc1)Nc1ccc(S(=O)(=O)NC(=O)c2ccc(N3CCC([C@@H](O)c4ccccc4-c4ccc(Cl)cc4)CC3)cc2)cc1S(=O)(=O)C(F)(F)F [AZD4320] + C=CCn1c(=O)c2cnc(Nc3ccc(N4CCN(C)CC4)cc3)nc2n1-c1cccc(C(C)(C)O)n1 [AZD1775] (first compound max 1 µM, partner max 1 µM)" tested_system="HCC-15 (Squamous Cell Lung Carcinoma)" measured_parameter="Bliss excess" readout_value=0.0202
compound="C[C@@H]1COCCN1c1cc(C2([S@](C)(=N)=O)CC2)nc(-c2ccnc3[nH]ccc23)n1 [AZD6738] + O=C(c1cc(Cc2n[nH]c(=O)c3ccccc23)ccc1F)N1CCN(C(=O)C2CC2)CC1 [Olaparib] (first compound max 10 µM, 7x7, partner max 10 µM)" tested_system="HCC-15 (Squamous Cell Lung Carcinoma)" measured_parameter="Bliss excess" readout_value=0.0025
compound="CN(CCO)CC[C@H](CSc1ccccc1)Nc1ccc(S(=O)(=O)NC(=O)c2ccc(N3CCC([C@@H](O)c4ccccc4-c4ccc(Cl)cc4)CC3)cc2)cc1S(=O)(=O)C(F)(F)F [AZD4320] + CCN(CCO)CCCOc1ccc2c(Nc3cc(CC(=O)Nc4cccc(F)c4)[nH]n3)ncnc2c1 [AZD2811] (first compound max 1 µM, 7x7, partner max 1 µM)" tested_system="HCC-15 (Squamous Cell Lung Carcinoma)" measured_parameter="Bliss excess" readout_value=-0.0091
